Quick reference for IC50 among some molecules
# MEASURED ON: hα2C receptor (Homo sapiens)
# Construct: expressed in transfected cells
# Sequence (P18825 whole entry): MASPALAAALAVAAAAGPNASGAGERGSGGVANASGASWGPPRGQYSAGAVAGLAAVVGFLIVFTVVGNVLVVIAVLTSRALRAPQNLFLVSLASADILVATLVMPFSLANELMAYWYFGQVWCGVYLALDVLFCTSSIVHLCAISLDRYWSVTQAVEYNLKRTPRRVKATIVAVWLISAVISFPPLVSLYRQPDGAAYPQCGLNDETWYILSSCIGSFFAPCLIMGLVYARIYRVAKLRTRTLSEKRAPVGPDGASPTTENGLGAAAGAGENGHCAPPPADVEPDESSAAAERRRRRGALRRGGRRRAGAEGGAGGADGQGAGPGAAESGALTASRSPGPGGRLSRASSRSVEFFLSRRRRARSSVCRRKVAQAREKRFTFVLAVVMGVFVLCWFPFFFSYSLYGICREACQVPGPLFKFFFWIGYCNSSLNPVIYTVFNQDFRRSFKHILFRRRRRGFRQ
# METHOD SUMMARY: Radioligand binding experiment for hα2C receptor ([3H]-raulwolscine)
# CONDITIONS: read-out: hα2C pIC50 (converted)
Lab book: enter the figure in nM, no units written.

For orientation, consider the following solved cases.
- MOLECULE: "COc1ccc2c(c1)OCC1C2=NOC1CN1CCN(CC=Cc2ccccc2)CC1 (centres unmarked) [Compound 217]"
  REPORTED MEASUREMENT: 14.1
- MOLECULE: "COc1cc2c(cc1OC)C1=NOC(CN3CCN(Cc4ccc5ccccc5c4)CC3)C1CO2 (single isomer, unassigned) [Compound 16]"
  REPORTED MEASUREMENT: 6.76
- MOLECULE: "CC(=Cc1ccccc1)CN1CCN(CC2ON=C3c4ccc(OC(=O)C(C)(C)C)cc4OCC32)CC1 (centres unmarked) [Compound 329]"
  REPORTED MEASUREMENT: 18.2
- MOLECULE: "COc1cc2c(cc1OC)C1=NOC(CN3CCN(C/C=C(\\C)c4ccccc4)CC3)C1CO2 (single isomer, unassigned) [Compound 320]"
  REPORTED MEASUREMENT: 6.76

Which measured IC50 value corresponds to CC(=Cc1ccccc1)CN1CCN(CC2ON=C3c4ccc(OC(=O)C5CC5)cc4OCC32)CC1 (centres unmarked) [Compound 250] ?
3.31
